test system: Alopecurus myosuroides (ALOMY); test: Example B pre-emergence herbicidal activity, glasshouse pot test; type: in vivo; details: 312 h, rate 250 g/ha, evaluated after 13 days, scale 0-100, read-out: Pre-emergence activity ALOMY (100=total damage to plant; 0=no damage to plant)
Examples of molecules with documented pest or weed control at 250 g/ha follow.
observation type: pest or weed control at 250 g/ha

>>> df
                                     smiles                             tgt  result
0  CCc1ccc(-c2ccc(Cl)nc2)cc1C1=C(O)C(C)(C)CCC1=O  Alopecurus myosuroides (ALOMY)      0%
1  CCc1ccc(-c2ccc(Cl)c(C(F)(F)F)c2F)cc1C1=C(O)CCCC1=O  Alopecurus myosuroides (ALOMY)     20%
2  CCc1ccc(-c2ccc(Cl)c(Cl)c2F)cc1C1=C(O)C(C)(C)CCC1=O  Alopecurus myosuroides (ALOMY)      0%
3  CCc1ccc(-c2ccc(Cl)c(F)c2)cc1C1=C(O)CCCC1=O  Alopecurus myosuroides (ALOMY)     30%
4  CCc1ccc(-c2ccc(Cl)cc2)cc1C1=C(O)C(C)(C)CCC1=O  Alopecurus myosuroides (ALOMY)     50%

###

Recorded pest or weed control at 250 g/ha, one value per entry.
Tested on: Avena fatua (AVEFA)
Assay: Example B pre-emergence herbicidal activity, glasshouse pot test
Format: in vivo
Settings: 312 h, rate 250 g/ha, evaluated after 13 days, scale 0-100, read-out: Pre-emergence activity AVEFA (100=total damage to plant; 0=no damage to plant)
Method: Seeds of a variety of test species were sown in standard soil in pots. […] After 13 days for pre and post-emergence, the test was evaluated (100=total damage to plant; 0=no damage to plant). […]
observation type: pest or weed control at 250 g/ha (%)

>>> df
                                     smiles                  tgt  recorded_number
0  CCc1ccc(-c2ccc(Cl)c(F)c2F)cc1C1=C(O)C(C)(C)CC(C)(C)C1=O  Avena fatua (AVEFA)               50
1  CCc1ccc(-c2ccc(Cl)cc2)cc1C1=C(O)C(C)(C)CCC1=O  Avena fatua (AVEFA)                0
2  CCc1ccc(-c2ccc(Cl)c(Cl)c2)cc1C1=C(O)C(C)(C)CC(C)(C)C1=O  Avena fatua (AVEFA)                0
3  CCc1ccc(-c2ccc(Cl)c(Cl)c2F)cc1C1=C(O)C(C)(C)CCC1=O  Avena fatua (AVEFA)                0
4  CCc1ccc(-c2ccc(C(F)(F)F)cc2)cc1C1=C(O)CCCC1=O  Avena fatua (AVEFA)              100
5  CCc1ccc(-c2ccc(Cl)c(Cl)c2)cc1C1=C(O)CC(C)(C)CC1=O  Avena fatua (AVEFA)               40
6  CCc1ccc(-c2ccc(Cl)c(Cl)c2Cl)cc1C1=C(O)CCCC1=O  Avena fatua (AVEFA)                0
7    CCc1ccc(-c2ccc(Cl)s2)cc1C1=C(O)CCCC1=O  Avena fatua (AVEFA)                0
8  CCc1ccc(-c2ccc(Cl)nc2Cl)cc1C1=C(O)C(C)(C)CCC1=O  Avena fatua (AVEFA)                0

###

system: Alopecurus myosuroides (ALOMY); test: Example B pre-emergence herbicidal activity, glasshouse pot test; type: in vivo; conditions: 312 h, rate 250 g/ha, evaluated after 13 days, scale 0-100, read-out: Pre-emergence activity ALOMY (100=total damage to plant; 0=no damage to plant)
Consider the following compounds and their measured pest or weed control at 250 g/ha readings.
observation type: pest or weed control at 250 g/ha (%)

>>> df
                                   compound                  observation_type  recorded_number
0  CCc1ccc(-c2c(F)cc(Cl)cc2Cl)cc1C1=C(O)CCCC1=O [Compound T51]  pest or weed control at 250 g/ha               20
1  CCc1ccc(-c2ccc(Cl)cc2)cc1C1=C(O)CC(C)(C)CC1=O [Compound T3]  pest or weed control at 250 g/ha               60
2  CCc1ccc(-c2ccc(Cl)cc2)cc1C1=C(O)C(C)(C)CC(C)(C)C1=O [Compound T69]  pest or weed control at 250 g/ha               10
3  CCc1ccc(-c2ccc(Cl)c(Cl)c2)cc1C1=C(O)CCCC1=O [Compound T49]  pest or weed control at 250 g/ha               20
4  CCc1ccc(-c2ccc(Cl)cc2C)cc1C1=C(O)CCCC1=O [Compound T48]  pest or weed control at 250 g/ha                0
5  CCc1ccc(-c2ccc(Cl)c(C(F)(F)F)c2)cc1C1=C(O)CCCC1=O [Compound T41]  pest or weed control at 250 g/ha               20
6  CCc1ccc(-c2c(F)cc(Cl)cc2F)cc1C1=C(O)CCCC1=O [Compound T58]  pest or weed control at 250 g/ha               20
7  CCc1ccc(-c2ccc(Cl)c(C(F)(F)F)c2)cc1C1=C(O)C(C)(C)CCC1=O [Compound T8]  pest or weed control at 250 g/ha                0
8  CCc1ccc(-c2ccc(C(F)(F)F)cc2)cc1C1=C(O)CC(C)(C)CC1=O [Compound T34]  pest or weed control at 250 g/ha               20

###

tested on: Alopecurus myosuroides (ALOMY); assay: Example B pre-emergence herbicidal activity, glasshouse pot test; type: in vivo; details: 312 h, rate 250 g/ha, evaluated after 13 days, scale 0-100, read-out: Pre-emergence activity ALOMY (100=total damage to plant; 0=no damage to plant)
The entries below are paired with their reported pest or weed control at 250 g/ha.
observation type: pest or weed control at 250 g/ha (%)

In [3]: df
Out[3]:
                                     smiles  recorded_number
0  CCc1ccc(-c2ccc(Cl)cc2Cl)cc1C1=C(O)CCCC1=O                0
1   CCc1ccc(-c2ccc(Cl)nc2)cc1C1=C(O)CCCC1=O                0
2  CCc1ccc(-c2ccc(Cl)c(F)c2F)cc1C1=C(O)C(C)(C)CCC1=O               30
3  CCc1ccc(-c2ccc(Cl)c(C(F)(F)F)c2)cc1C1=C(O)C(C)(C)CC(C)(C)C1=O               10

###

Reported pest or weed control at 250 g/ha values for a set of molecules
tested on: Alopecurus myosuroides (ALOMY); experiment: Example B pre-emergence herbicidal activity, glasshouse pot test; assay type: in vivo; conditions: 312 h, rate 250 g/ha, evaluated after 13 days, scale 0-100, read-out: Pre-emergence activity ALOMY (100=total damage to plant; 0=no damage to plant)
observation type: pest or weed control at 250 g/ha (%)

In [3]: df
Out[3]:
                                     smiles                             tgt                  observation_type  recorded_number
0  CCc1ccc(-c2ccc(Cl)cc2C)cc1C1=C(O)C(C)(C)CCC1=O  Alopecurus myosuroides (ALOMY)  pest or weed control at 250 g/ha               20
1  CCc1ccc(-c2ccc(Cl)cc2F)cc1C1=C(O)CC(C)(C)CC1=O  Alopecurus myosuroides (ALOMY)  pest or weed control at 250 g/ha                0
2  CCc1ccc(-c2ccc(Cl)c(OC)c2)cc1C1=C(O)CCCC1=O  Alopecurus myosuroides (ALOMY)  pest or weed control at 250 g/ha               20
3  CCc1ccc(-c2ccc(Cl)c(F)c2F)cc1C1=C(O)CC(C)(C)CC1=O  Alopecurus myosuroides (ALOMY)  pest or weed control at 250 g/ha                0
4  CCc1ccc(-c2ccc(Cl)c(F)c2F)cc1C1=C(O)C(C)(C)CC(C)(C)C1=O  Alopecurus myosuroides (ALOMY)  pest or weed control at 250 g/ha               60
5  CCc1ccc(-c2ccc(Cl)c(F)c2Cl)cc1C1=C(O)C(C)(C)CCC1=O  Alopecurus myosuroides (ALOMY)  pest or weed control at 250 g/ha                0
6  CCc1ccc(-c2ccc(Cl)cc2F)cc1C1=C(O)CCCC1=O  Alopecurus myosuroides (ALOMY)  pest or weed control at 250 g/ha               20
7  CCc1ccc(-c2cc(Cl)c(Cl)cc2Cl)cc1C1=C(O)CCCC1=O  Alopecurus myosuroides (ALOMY)  pest or weed control at 250 g/ha                0
8  CCc1ccc(-c2ccc(Cl)c(F)c2Cl)cc1C1=C(O)CC(C)(C)CC1=O  Alopecurus myosuroides (ALOMY)  pest or weed control at 250 g/ha               40
